- COMPOUND: "COC(C)(C#Cc1cnc(N)nc1N)c1ccc(/N=N/c2ccc(Cl)c(C(=O)O)c2)cc1 (centres unmarked)"
  melting point: "212 °C (dec.)"
- COMPOUND: "Nc1ncc(-c2ccc(/N=N/c3ccccc3)cc2)c(N)n1"
  melting point: "199 to 201 °C"
- COMPOUND: "COC(C)(C#Cc1cnc(N)nc1N)c1ccc(/N=N/c2ccc(C)c(C(=O)O)c2)cc1 (centres unmarked)"
  melting point: "221 °C (dec.)"
- COMPOUND: "COC(C)(C#Cc1cnc(N)nc1N)c1ccc(/N=N/c2ccc(C(=O)O)cc2)cc1 (centres unmarked)"
  melting point: "248 °C (dec.)"
- COMPOUND: "COC(C)(C#Cc1cnc(N)nc1N)c1ccc(/N=N/c2ccc(C(=O)O)c(Cl)c2)cc1 (centres unmarked)"
  melting point: "245 °C (dec.)"
